molecular target: Bordetella pertussis adenylate cyclase toxin (ACT) (Bordetella pertussis, UniProt P0DKX7); assay: Inhibition of ACT-induced cAMP accumulation in J774A.1 macrophages; assay type: cell-based; details: cell-based assay
Sequence (P0DKX7 whole entry, looked up): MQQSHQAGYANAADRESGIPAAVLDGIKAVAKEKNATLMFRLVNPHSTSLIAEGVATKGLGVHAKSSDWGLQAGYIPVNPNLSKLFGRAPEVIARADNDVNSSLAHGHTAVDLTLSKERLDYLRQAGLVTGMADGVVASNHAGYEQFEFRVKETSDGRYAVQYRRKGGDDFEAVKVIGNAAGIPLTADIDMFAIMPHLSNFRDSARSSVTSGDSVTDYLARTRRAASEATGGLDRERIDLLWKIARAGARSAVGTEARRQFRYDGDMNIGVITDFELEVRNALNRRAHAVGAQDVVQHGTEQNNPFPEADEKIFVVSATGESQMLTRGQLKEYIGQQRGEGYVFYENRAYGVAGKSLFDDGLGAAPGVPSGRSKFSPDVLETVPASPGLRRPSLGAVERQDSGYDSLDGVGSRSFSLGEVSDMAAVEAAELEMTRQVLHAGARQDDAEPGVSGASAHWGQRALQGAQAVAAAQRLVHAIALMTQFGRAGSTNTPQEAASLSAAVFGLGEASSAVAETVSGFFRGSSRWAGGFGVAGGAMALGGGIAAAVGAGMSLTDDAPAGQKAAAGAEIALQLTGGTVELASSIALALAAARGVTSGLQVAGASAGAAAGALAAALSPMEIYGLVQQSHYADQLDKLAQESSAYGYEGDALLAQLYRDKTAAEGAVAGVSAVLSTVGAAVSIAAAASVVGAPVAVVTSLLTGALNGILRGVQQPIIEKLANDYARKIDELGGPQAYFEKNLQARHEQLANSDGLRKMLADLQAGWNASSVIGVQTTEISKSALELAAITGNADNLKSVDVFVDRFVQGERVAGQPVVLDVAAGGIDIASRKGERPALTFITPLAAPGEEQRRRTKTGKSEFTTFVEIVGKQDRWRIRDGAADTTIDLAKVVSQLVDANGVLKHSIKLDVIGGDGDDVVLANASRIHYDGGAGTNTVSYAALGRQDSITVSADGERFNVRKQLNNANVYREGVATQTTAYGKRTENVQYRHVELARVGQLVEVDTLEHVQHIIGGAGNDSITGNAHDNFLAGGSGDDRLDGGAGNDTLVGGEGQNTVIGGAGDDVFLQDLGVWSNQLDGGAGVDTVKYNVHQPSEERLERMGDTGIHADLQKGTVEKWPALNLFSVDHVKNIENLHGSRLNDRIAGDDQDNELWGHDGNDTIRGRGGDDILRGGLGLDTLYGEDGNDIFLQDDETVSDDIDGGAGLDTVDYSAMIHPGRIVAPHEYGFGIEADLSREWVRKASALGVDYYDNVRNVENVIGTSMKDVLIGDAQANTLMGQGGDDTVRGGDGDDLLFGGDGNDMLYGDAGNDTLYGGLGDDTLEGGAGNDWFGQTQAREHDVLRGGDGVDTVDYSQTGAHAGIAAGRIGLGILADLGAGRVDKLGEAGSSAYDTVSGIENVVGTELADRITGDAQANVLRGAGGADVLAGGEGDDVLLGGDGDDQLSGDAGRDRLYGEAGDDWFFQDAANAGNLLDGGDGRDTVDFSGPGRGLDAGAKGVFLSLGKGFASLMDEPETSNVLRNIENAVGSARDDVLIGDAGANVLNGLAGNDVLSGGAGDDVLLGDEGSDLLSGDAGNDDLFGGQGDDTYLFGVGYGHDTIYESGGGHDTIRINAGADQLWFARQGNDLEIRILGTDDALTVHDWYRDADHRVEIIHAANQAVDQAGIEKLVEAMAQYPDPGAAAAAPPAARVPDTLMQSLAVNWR
Measured Quantity: ACT inhibition in J774A.1 cells (in words)

INSERT INTO assay_data (smiles_str, result) VALUES
  ('CC(C)OC(=O)[C@H](Cc1ccccc1)NP(=O)(COCc1csc(N)n1)N[C@@H](Cc1ccccc1)C(=O)OC(C)C', 'did not inhibit ACT'),
  ('CC(C)OC(=O)[C@H](Cc1ccccc1)NP(=O)(COCCc1csc(N)n1)N[C@@H](Cc1ccccc1)C(=O)OC(C)C', 'did not inhibit ACT');

###

Property: pIC50; scope: individual compounds
molecular target: ACT from Bordetella pertussis (Bordetella pertussis, UniProt P0DKX7); experiment: Direct inhibition of ACT in cell-free enzymatic assay
pIC50: −log10 of the molar value.

INSERT INTO measurements (compound, measured_quantity, result) VALUES
  ('Nc1nc(CCOCP(=O)(O)OP(=O)(O)OP(=O)(O)O)c(-c2cccc(F)c2)s1 [Compound 29]', 'pIC50', '6.51 to 7.43'),
  ('CC(C)Cc1sc(N)nc1-c1ccc(P(=O)(O)OP(=O)(O)OP(=O)(O)O)o1 [Compound 6]', 'pIC50', 4.97),
  ('CC(C)Oc1ccc(-c2sc(N)nc2CCOCP(=O)(O)OP(=O)(O)OP(=O)(O)O)cc1 [Compound 30]', 'pIC50', '6.51 to 7.43');

Consider the additional compound presented here.
Consider the compound Nc1nc(CCOCP(=O)(O)OP(=O)(O)OP(=O)(O)O)c(-c2cccc(OCc3ccccc3)c2)s1 [Compound 32] . State its measured pIC50.
6.51 to 7.43
